testSystem: K-Ras G12C(GMP-PNP) binding to BRAF RBD (Homo sapiens (Human), UniProt P01116+P62937, G12C)
Sequence (P01116 other isoform, or with tags, fused parts or gaps G12C): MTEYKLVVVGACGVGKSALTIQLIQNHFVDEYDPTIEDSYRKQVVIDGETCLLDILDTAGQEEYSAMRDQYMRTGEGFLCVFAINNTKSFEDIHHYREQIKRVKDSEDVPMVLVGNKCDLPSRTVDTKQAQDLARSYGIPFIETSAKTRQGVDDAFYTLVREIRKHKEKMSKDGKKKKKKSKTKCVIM
Sequence (P62937 whole entry): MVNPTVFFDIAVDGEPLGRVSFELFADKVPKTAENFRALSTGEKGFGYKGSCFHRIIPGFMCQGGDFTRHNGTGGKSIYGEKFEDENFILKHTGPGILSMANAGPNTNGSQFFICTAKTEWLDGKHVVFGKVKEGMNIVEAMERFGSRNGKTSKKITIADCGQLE
assayProcedure: Disruption of BRAF RBD interaction with K-Ras (FRET / MOA assay), K-Ras G12C
Assay type: biochemical
protocolConditions: read-out: KRAS G12C FRET IC50
From the text: Note—The following protocol describes a procedure for monitoring disruption of K-Ras G12C(GMP-PNP) binding to BRAF^RBD by a compound of the invention. This protocol may also be executed substituting other Ras proteins or nucleotides. […]
pIC50: −log10 of the molar value.
measuredAttribute: pIC50

Below are worked cases with known answers.
compound	assayValue
CCn1c(-c2cccnc2[C@H](C)OC)c2c3cc(ccc31)-c1cc(O)cc(c1)C[C@H](NC(=O)[C@H](C(C)C)N(C)C(=O)[C@@H]1CNC[C@@H]1C)C(=O)N1CCC[C@H](N1)C(=O)OCC(C)(C)C2 [Compound A128]	7.00 to 8.00
CCn1c(-c2cccnc2[C@H](C)OC)c2c3cc(ccc31)-c1cccc(c1)C[C@H](NC(=O)[C@H](C(C)C)N1CC[C@@]3(CCN(C(=O)C#CC(C)(C)N4CCC4)C3)C1=O)C(=O)N1CCC[C@H](N1)C(=O)OCC(C)(C)C2 (atropisomer, axis not shown) [Compound A733]	7.00 to 8.00
CCn1c(-c2cccnc2[C@H](C)OC)c2c3cc(ccc31)-c1csc(n1)C[C@H](NC(=O)[C@H](C(C)C)N(C)C(=O)N1CC[C@]3(CCNC3=O)C1)C(=O)N1CCC[C@H](N1)C(=O)OCC(C)(C)C2 [Compound A479]	> 8.00
CCn1c(-c2cccnc2[C@H](C)OC)c2c3cc(ccc31)-c1cc(O)cc(c1)C[C@H](NC(=O)[C@H](C(C)C)N(C)C(=O)[C@H]1C[C@H]1C)C(=O)N1CCC[C@H](N1)C(=O)OCC(C)(C)C2 [Compound A146]	6.00 to 7.00
CC#CC(=O)N1CC[C@]2(CCC([C@H](C(=O)N[C@H]3Cc4nc(cs4)-c4ccc5c(c4)c(c(-c4cccnc4[C@H](C)OC)n5CC)CC(C)(C)COC(=O)[C@@H]4CCCN(N4)C3=O)C(C)C)C2=O)C1 (stereo partly drawn) [Compound A511]	6.00 to 7.00
CCN(CC)C(=O)N(C)[C@H](C(=O)N[C@H]1Cc2nc(cs2)-c2ccc3c(c2)c(c(-c2cccnc2[C@H](C)OC)n3CC)CC(C)(C)COC(=O)[C@@H]2CCCN(N2)C1=O)C(C)C [Compound A351]	> 8.00
CCn1c(-c2cccnc2[C@H](C)OC)c2c3cc(ccc31)-c1cc(O)cc(c1)C[C@H](NC(=O)[C@H](C(C)C)N(C)C(=O)[C@@H]1OCC[C@H]1c1ccccc1)C(=O)N1CCC[C@H](N1)C(=O)OCC(C)(C)C2 [Compound A584]	7.00 to 8.00
CC#CC(=O)N1CC[C@H](C(=O)N(C)[C@H](C(=O)N[C@H]2Cc3cc(O)cc(c3)-c3ccc4c(c3)c(c(-c3cncnc3)n4CC)CC(C)(C)COC(=O)[C@@H]3CCCN(N3)C2=O)C(C)C)C1 [Compound A169]	6.00 to 7.00

Here is another compound to look at.
IN: Which measured pIC50 value corresponds to CCn1c(-c2cccnc2[C@H](C)OC)c2c3cc(ccc31)-c1cc(O)cc(c1)C[C@H](NC(=O)[C@H](C(C)C)N(C)C(=O)C1NCCC13CC3)C(=O)N1CCC[C@H](N1)C(=O)OCC(C)(C)C2 (stereo partly drawn) [Compound A228] ?
OUT: 5.00 to 6.00
